biological target: T-type calcium channel (Homo sapiens, UniProt O95180); assay: T-type channel blocking, FLIPR data (Table 6); format: cell-based; settings: CAv3.2, ratio closed/inactivated IC50
Sequence (O95180 whole entry): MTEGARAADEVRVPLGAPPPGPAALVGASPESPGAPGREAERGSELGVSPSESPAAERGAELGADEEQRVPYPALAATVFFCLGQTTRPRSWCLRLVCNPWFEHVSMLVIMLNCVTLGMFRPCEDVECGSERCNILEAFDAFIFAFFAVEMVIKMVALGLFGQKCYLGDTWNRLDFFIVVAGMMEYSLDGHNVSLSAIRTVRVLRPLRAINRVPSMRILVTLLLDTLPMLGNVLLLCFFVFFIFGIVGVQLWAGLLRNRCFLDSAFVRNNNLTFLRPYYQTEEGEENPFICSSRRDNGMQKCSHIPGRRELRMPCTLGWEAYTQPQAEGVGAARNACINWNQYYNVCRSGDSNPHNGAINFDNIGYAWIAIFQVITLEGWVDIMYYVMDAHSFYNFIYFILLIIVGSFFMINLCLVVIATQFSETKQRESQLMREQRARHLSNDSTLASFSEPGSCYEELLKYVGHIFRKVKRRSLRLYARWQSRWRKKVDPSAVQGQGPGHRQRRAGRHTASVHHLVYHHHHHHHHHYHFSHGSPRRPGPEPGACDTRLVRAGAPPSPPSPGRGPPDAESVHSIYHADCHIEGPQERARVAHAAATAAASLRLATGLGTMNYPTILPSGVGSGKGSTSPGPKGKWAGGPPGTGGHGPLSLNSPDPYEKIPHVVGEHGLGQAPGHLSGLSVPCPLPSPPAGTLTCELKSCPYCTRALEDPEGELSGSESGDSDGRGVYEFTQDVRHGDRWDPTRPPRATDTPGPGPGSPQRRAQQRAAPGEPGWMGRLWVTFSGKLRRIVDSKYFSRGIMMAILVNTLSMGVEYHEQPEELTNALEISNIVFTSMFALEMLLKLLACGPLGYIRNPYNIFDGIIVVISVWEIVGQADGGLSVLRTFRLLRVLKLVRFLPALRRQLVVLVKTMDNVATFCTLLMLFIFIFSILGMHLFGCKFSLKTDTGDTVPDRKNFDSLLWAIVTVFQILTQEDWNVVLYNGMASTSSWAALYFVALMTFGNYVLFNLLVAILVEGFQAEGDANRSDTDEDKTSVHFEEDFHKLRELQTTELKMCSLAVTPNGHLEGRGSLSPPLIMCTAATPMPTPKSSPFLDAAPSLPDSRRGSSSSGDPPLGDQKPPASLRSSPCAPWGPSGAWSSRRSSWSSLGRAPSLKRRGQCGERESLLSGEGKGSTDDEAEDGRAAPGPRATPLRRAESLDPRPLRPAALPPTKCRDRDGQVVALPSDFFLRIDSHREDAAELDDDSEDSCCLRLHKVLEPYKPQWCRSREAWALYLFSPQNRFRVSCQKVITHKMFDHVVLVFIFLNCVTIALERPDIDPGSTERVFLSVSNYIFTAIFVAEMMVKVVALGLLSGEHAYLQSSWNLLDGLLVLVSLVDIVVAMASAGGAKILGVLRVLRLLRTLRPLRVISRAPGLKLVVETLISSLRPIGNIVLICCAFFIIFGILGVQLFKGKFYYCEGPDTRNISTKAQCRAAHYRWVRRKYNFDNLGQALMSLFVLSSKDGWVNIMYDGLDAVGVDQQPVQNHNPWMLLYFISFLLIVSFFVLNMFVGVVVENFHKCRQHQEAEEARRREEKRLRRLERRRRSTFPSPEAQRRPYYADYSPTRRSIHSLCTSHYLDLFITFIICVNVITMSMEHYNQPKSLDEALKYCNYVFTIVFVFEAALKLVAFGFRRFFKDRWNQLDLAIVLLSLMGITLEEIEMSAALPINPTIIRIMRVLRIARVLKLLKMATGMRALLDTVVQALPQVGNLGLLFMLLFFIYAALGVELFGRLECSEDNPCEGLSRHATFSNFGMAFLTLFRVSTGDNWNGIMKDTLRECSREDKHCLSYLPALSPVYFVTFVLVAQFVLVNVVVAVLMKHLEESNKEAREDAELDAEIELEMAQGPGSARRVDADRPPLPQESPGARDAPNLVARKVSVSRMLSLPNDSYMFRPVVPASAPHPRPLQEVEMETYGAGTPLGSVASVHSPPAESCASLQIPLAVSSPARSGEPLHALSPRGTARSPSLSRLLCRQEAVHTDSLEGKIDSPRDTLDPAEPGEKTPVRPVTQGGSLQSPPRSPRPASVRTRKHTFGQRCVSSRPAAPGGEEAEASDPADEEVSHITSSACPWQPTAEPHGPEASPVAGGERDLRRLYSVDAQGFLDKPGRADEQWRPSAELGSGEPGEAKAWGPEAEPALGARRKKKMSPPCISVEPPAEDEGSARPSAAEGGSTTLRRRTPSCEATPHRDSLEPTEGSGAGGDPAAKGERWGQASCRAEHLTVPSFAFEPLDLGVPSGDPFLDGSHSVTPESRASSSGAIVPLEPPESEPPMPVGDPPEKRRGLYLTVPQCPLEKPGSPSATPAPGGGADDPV
Rule: CAv3.2 IC50 Ratio closed/inact. below 2 gives yes (1). Equal to or above 2 gives no (0).

Input line: Given the entry CC(C)([C@H]1C[C@@H](NC(=O)c2ccc(F)c(Cl)c2)C1)S(=O)(=O)c1cccc(OC(F)(F)F)c1 [Compound 641] , would its reported CAv3.2 IC50 Ratio closed/inact. be below 2?
Output line: yes (1)

Input line: Given the entry CC(C)S(=O)(=O)c1cc(C(F)(F)F)cnc1C(=O)N[C@H]1C[C@@H](C(C)(C)S(=O)(=O)c2cccc(OC(F)(F)F)c2)C1 [Compound 645] , would its reported CAv3.2 IC50 Ratio closed/inact. be below 2?
Output line: yes (1)

Input line: Given the entry CC(C)([C@H]1C[C@@H](Nc2ccnc(C(F)(F)F)n2)C1)S(=O)(=O)c1cc(F)cc(C(F)(F)F)c1 [Compound 648] , would its reported CAv3.2 IC50 Ratio closed/inact. be below 2?
Output line: yes (1)

Input line: Given the entry CC(C)([C@H]1C[C@H](NS(=O)(=O)c2ccc(F)c(C(F)(F)F)c2)C1)S(=O)(=O)c1cccc(C(F)(F)F)c1 [Compound 667] , would its reported CAv3.2 IC50 Ratio closed/inact. be below 2?
Output line: yes (1)

Input line: Given the entry CC(C)S(=O)(=O)c1cc(C(F)(F)F)cnc1C(=O)N[C@H]1C[C@H](C(C)(C)S(=O)(=O)c2cc(F)cc(C(F)(F)F)c2)C1 [Compound 593] , would its reported CAv3.2 IC50 Ratio closed/inact. be below 2?
Output line: yes (1)

Input line: Given the entry CC(C)([C@H]1C[C@@H](NC(=O)c2ccc(C(F)(F)F)cc2S(C)(=O)=O)C1)S(=O)(=O)c1cc(F)cc(C(F)(F)F)c1 [Compound 585] , would its reported CAv3.2 IC50 Ratio closed/inact. be below 2?
Output line: yes (1)

Input line: Given the entry O=C(NC[C@H]1C[C@H](S(=O)(=O)c2cc(F)cc(C(F)(F)F)c2)C1)c1ccc(OCC(F)(F)F)nc1 [Compound 706] , would its reported CAv3.2 IC50 Ratio closed/inact. be below 2?
Output line: no (0)

Input line: Given the entry O=C(NC[C@H]1C[C@H](S(=O)(=O)c2cccc(OC(F)(F)F)c2)C1)c1ccc(OCC(F)(F)F)nc1 [Compound 698] , would its reported CAv3.2 IC50 Ratio closed/inact. be below 2?
Output line: yes (1)

Input line: Given the entry CC(C)([C@H]1C[C@H](NS(=O)(=O)c2ccc(C(F)(F)F)cc2Cl)C1)S(=O)(=O)c1cc(F)cc(C(F)(F)F)c1 [Compound 623] , would its reported CAv3.2 IC50 Ratio closed/inact. be below 2?
Output line: no (0)

Input line: Given the entry CC(C)(C1CC(CNC(=O)c2ccc(F)c(Cl)c2)C1)S(=O)(=O)c1cccc(C(F)(F)F)c1 (stereo not shown) [Compound 618] , would its reported CAv3.2 IC50 Ratio closed/inact. be below 2?
Output line: no (0)

Input line: Given the entry CC(C)(C[C@H]1C[C@H](NC(=O)c2ccc(C(F)(F)F)cc2)C1)S(=O)(=O)c1cccc(C(F)(F)F)c1 [Compound 719] , would its reported CAv3.2 IC50 Ratio closed/inact. be below 2?
Output line: yes (1)

Input line: Given the entry CC(C)([C@H]1C[C@H](NS(=O)(=O)c2ccc(C(F)(F)F)cc2)C1)S(=O)(=O)c1cc(F)cc(C(F)(F)F)c1 [Compound 605] , would its reported CAv3.2 IC50 Ratio closed/inact. be below 2?
Output line: no (0)

Input line: Given the entry CC(C)(C[C@H]1C[C@H](NC(=O)c2ccc(Cl)cc2S(C)(=O)=O)C1)S(=O)(=O)c1cccc(C(F)(F)F)c1 [Compound 718] , would its reported CAv3.2 IC50 Ratio closed/inact. be below 2?
Output line: yes (1)

Input line: Given the entry CC(C)(C[C@H]1C[C@H](NC(=O)c2ccc(C(F)(F)F)cn2)C1)S(=O)(=O)c1cccc(C(F)(F)F)c1 [Compound 722] , would its reported CAv3.2 IC50 Ratio closed/inact. be below 2?
Output line: yes (1)

Input line: Given the entry CC(C)([C@H]1C[C@H](NS(=O)(=O)c2ccc(C(F)(F)F)nc2)C1)S(=O)(=O)c1cc(F)cc(C(F)(F)F)c1 [Compound 609] , would its reported CAv3.2 IC50 Ratio closed/inact. be below 2?
Output line: no (0)

Input line: Given the entry CC(C)([C@H]1C[C@@H](NS(=O)(=O)c2ccc(F)c(Cl)c2)C1)S(=O)(=O)c1cc(F)cc(C(F)(F)F)c1 [Compound 599] , would its reported CAv3.2 IC50 Ratio closed/inact. be below 2?
Output line: no (0)

Input line: Given the entry O=C(NC[C@H]1C[C@H](S(=O)(=O)c2cccc(OC(F)(F)F)c2)C1)c1ccc(C(F)(F)F)nc1 [Compound 695] , would its reported CAv3.2 IC50 Ratio closed/inact. be below 2?
Output line: yes (1)

Input line: Given the entry CC(C)([C@H]1C[C@@H](NS(=O)(=O)c2ccc(OC(F)(F)F)cc2)C1)S(=O)(=O)c1cc(F)cc(C(F)(F)F)c1 [Compound 603] , would its reported CAv3.2 IC50 Ratio closed/inact. be below 2?
Output line: yes (1)

Source: patent US20120245137A1
